method.notes: Biodistribution of ^131 I-3 in CD-1 Mice, normal and blocked with lisinopril
Assay type: in vivo
condition.info: mouse, kidney, iv, 1 uCi, 0.5 hours, blocked (lisinopril); read-out: Biodistribution, Kidney
experimental.readout: tissue uptake at 0.5 h (%ID/g)
Report as a plain number; the unit %ID/g is understood.

**Q:** May I ask what tissue uptake at 0.5 h has been recorded for O=C(NCCCC[C@H](N[C@@H](CCc1ccccc1)C(=O)O)C(=O)N1CCC[C@H]1C(=O)O)c1cccc([131I])c1 [^131 I-3, Lisinopril N^ε -radioiodobezamide] ?
**A:** 9.8

----------
method.notes: Biodistribution of ^131 I-3 in CD-1 Mice, normal and blocked with lisinopril
Format: in vivo
condition.info: mouse, liver, iv, 1 uCi, 6.0 hours, normal (not blocked); read-out: Biodistribution, Liver
experimental.readout: tissue uptake at 6 h (%ID/g)
Could you give me the number in %ID/g? Just the number is fine.

**Q:** Given the compound O=C(NCCCC[C@H](N[C@@H](CCc1ccccc1)C(=O)O)C(=O)N1CCC[C@H]1C(=O)O)c1cccc([131I])c1 [^131 I-3, Lisinopril N^ε -radioiodobezamide] , what is its reported tissue uptake at 6 h?
**A:** 0.8
